The measurements presented in this section are drawn from patent US20100266614A1.

# targetOrSystem: T1, RSV F protein (C-terminal truncated F protein secreted from a recombinant baculovirus) (respiratory syncytial virus (RSV), UniProt P03420 26-524)
# T1 construct: also called F antigen; RSV F antigen
# T1 sequence (P03420 26-109, chain 1 of 2): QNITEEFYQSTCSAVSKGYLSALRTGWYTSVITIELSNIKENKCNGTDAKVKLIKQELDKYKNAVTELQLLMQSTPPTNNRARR
# T1 sequence (P03420 137-524, chain 2 of 2): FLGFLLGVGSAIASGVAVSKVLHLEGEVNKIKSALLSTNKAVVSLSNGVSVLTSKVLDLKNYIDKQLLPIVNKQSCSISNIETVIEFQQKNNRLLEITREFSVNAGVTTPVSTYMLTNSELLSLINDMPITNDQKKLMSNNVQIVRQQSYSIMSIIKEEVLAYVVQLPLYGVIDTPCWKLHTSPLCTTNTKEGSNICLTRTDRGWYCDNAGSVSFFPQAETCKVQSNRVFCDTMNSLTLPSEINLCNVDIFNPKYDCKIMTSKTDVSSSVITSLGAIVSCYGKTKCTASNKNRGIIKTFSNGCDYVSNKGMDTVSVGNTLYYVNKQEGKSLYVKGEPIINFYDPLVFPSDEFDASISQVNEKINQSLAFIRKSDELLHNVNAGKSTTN
# assayMethodText: ELISA titration of antibody on 500 ng RSV F antigen; qualitative score from titration curves
observationType: Ag Score (arbitrary score 0-4)
State the answer as a number, implicitly in arbitrary score 0-4.

Example results:
binder	unitAnnotation	Ag Score
clone 5 (PFFW) (antibody, V domains shown, also called 5 (n = 3)) VH: QVTLRESGPALVKPTQTLTLTCTFSGFSLSTPGMSVGWIRQPPGKALEWLADIWWDDKKDYNPSLKSRLTISKDTSKNQVVLKVTNMDPADTATYYCARSMITNFYFDVWGQGTTVTVSS VL: DIQMTQSPSTLSASVGDRVTITCSASSSVGYMHWYQQKPGKAPKLLIYDTFKLASGVPSRFSGSGSGTEFTLTISSLQPDDFATYYCFQGSWYPFTFGGGTKVEIK	arbitrary score 0-4	3.5
clone 17 (PWSW) (antibody, V domains shown) VH: QVTLRESGPALVKPTQTLTLTCTFSGFSLSTPGMSVGWIRQPPGKALEWLADIWWDDKKDYNPSLKSRLTISKDTSKNQVVLKVTNMDPADTATYYCARSMITNWYFDVWGQGTTVTVSS VL: DIQMTQSPSTLSASVGDRVTITCSASSSVGYMHWYQQKPGKAPKLLIYDTSKLASGVPSRFSGSGSGTEFTLTISSLQPDDFATYYCFQGSWYPFTFGGGTKVEIK	arbitrary score 0-4	2

Next binder, Ag Score to be filled in.
So for clone 16 (PFSG) (antibody, V domains shown, also called 16 (n = 2)) VH: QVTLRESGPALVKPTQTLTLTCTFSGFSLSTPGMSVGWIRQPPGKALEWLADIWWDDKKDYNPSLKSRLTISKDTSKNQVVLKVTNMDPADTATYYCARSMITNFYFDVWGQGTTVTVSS VL: DIQMTQSPSTLSASVGDRVTITCSASSSVGYMHWYQQKPGKAPKLLIYDTSKLASGVPSRFSGSGSGTEFTLTISSLQPDDFATYYCFQGSGYPFTFGGGTKVEIK , the logged Ag Score turned out to be 2
